experimental system: HIV-1 PR (Human immunodeficiency virus type 1 group M subtype B, UniProt P12497)
protocol details: cell-based
measurement context: EC50 in Fission Yeast /Pure Compound, pure compound; PR-on RE294 cells; growth (OD650) at 72 h post-gene induction relative to PR-off cells
Method: The goal of this experiment was to determine the potency of each PI drug in fission yeast by the determination of EC50. […] Briefly, both HIV-1 PR-suppressing (PR-off) and PR-producing (PR-on) RE294 cells were prepared as described above. […] Final cellular growth was measured at 72 h post-gene induction. (A) Pure compound of PI drugs. […] Cellular growth was measured at 72 h post-gene induction by optical density of 650 nm using a spectrophotometer. […]
measured attribute: pEC50
Scale: negative log10 of molar concentration, which is what pEC50 denotes.

Worked cases, pEC50 given:
CC(C)CN(C[C@@H](O)[C@H](Cc1ccccc1)NC(=O)O[C@H]1CCOC1)S(=O)(=O)c1ccc(N)cc1 ... 4.26
Cc1c(O)cccc1C(=O)N[C@@H](CSc1ccccc1)[C@H](O)CN1C[C@H]2CCCC[C@H]2C[C@H]1C(=O)NC(C)(C)C ... 5.01
COC(=O)N[C@H](C(=O)N[C@@H](Cc1ccccc1)[C@@H](O)CN(Cc1ccc(-c2ccccn2)cc1)NC(=O)[C@@H](NC(=O)OC)C(C)(C)C)C(C)(C)C ... 4.68

For the next question, use this molecule.
Lab note: need pEC50 for CCC[C@@]1(CCc2ccccc2)CC(O)=C([C@H](CC)c2cccc(NS(=O)(=O)c3ccc(C(F)(F)F)cn3)c2)C(=O)O1 on HIV-1 PR (Human immunodeficiency virus type 1 group M subtype B, UniProt P12497), anyone have it?
5.15
